pIC50 reference
Tested on: 349418-098-R-PDC complex spheroid viability
test description: Anticancer human tumor 349418-098-R-PDC patient-derived lung adenocarcinoma cell line growth inhibition [RAS]
measurement setup: curve of first compound; second compound 0.1 µM
pIC50: −log10 of the molar value.

molecule: CC(=O)OC12COC1CC(O)C1(C)C(=O)C(O)C3=C(C)C(OC(=O)C(O)C(NC(=O)OC(C)(C)C)c4ccccc4)CC(O)(C(OC(=O)c4ccccc4)C21)C3(C)C (configuration not stated) + C=CC(=O)N1CCN(c2nc(OCC3CCCN3C)nc3c(F)c(-c4nc(N)cc(C)c4C(F)(F)F)c(Cl)cc23)C(C)C1
pIC50: > 7.50
//
molecule: Cc1nc(N2CCC3(CC2)COC(C)C3N)c(CO)nc1Sc1ccnc(N)c1Cl (configuration not stated) + C#Cc1c(F)ccc2cc(O)cc(-c3ncc4c(N5CC6CCC(C5)N6)nc(OCC56CCCN5CC(F)C6)nc4c3F)c12
pIC50: < 5.00

###

Test system: 349418-098-R-PDC complex spheroid viability
test description: Anticancer human tumor 349418-098-R-PDC cell line growth inhibition [RAS];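 note: spheroids exposed to compound for seven days before viability readout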
measurement setup: second compound 1 µM; first compound 0.1 µM; stronger effect = lower value
parameter measured: viability, T/C (%)

compound: Nc1ccn(C2OC(CO)C(O)C2(F)F)c(=O)n1 (centres undefined) + C#Cc1c(F)ccc2cc(O)cc(-c3ncc4c(N5CC6CCC(C5)N6)nc(OCC56CCCN5CC(F)C6)nc4c3F)c12
system name: 349418-098-R-PDC complex spheroid viability
parameter measured: viability, T/C
output unit: %
assay value: 6.95
--
compound: CC(C)NCC(C(=O)N1CCN(c2ncnc3c2C(C)CC3O)CC1)c1ccc(Cl)cc1 (centres undefined) + C#Cc1c(F)ccc2cc(O)cc(-c3ncc4c(N5CC6CCC(C5)N6)nc(OCC56CCCN5CC(F)C6)nc4c3F)c12
system name: 349418-098-R-PDC complex spheroid viability
parameter measured: viability, T/C
output unit: %
assay value: 54.8
--
compound: Cc1nc(N2CCC3(CC2)COC(C)C3N)c(CO)nc1Sc1ccnc(N)c1Cl (centres undefined) + C=CC(=O)N1CCN(c2nc(OCC3CCCN3C)nc3c(F)c(-c4nc(N)cc(C)c4C(F)(F)F)c(Cl)cc23)C(C)C1
system name: 349418-098-R-PDC complex spheroid viability
parameter measured: viability, T/C
output unit: %
assay value: 76.5
--
compound: CC(C)n1nc(-c2ccc3oc(N)nc3c2)c2c(N)ncnc21 + C=CC(=O)N1CCN(c2nc(OCC3CCCN3C)nc3c(F)c(-c4nc(N)cc(C)c4C(F)(F)F)c(Cl)cc23)C(C)C1
system name: 349418-098-R-PDC complex spheroid viability
parameter measured: viability, T/C
output unit: %
assay value: 5.88
--
compound: C[C@@H](NC(=O)c1ncnc(N)c1Cl)c1ncc(C(=O)Nc2cc(C(F)(F)F)c(Cl)cn2)s1 + C=CC(=O)N1CCN(c2nc(OCC3CCCN3C)nc3c(F)c(-c4nc(N)cc(C)c4C(F)(F)F)c(Cl)cc23)C(C)C1
system name: 349418-098-R-PDC complex spheroid viability
parameter measured: viability, T/C
output unit: %
assay value: 111
--
compound: CC(C)NCC(C(=O)N1CCN(c2ncnc3c2C(C)CC3O)CC1)c1ccc(Cl)cc1 (centres undefined) + C=CC(=O)N1CCN(c2nc(OCC3CCCN3C)nc3c(F)c(-c4nc(N)cc(C)c4C(F)(F)F)c(Cl)cc23)C(C)C1
system name: 349418-098-R-PDC complex spheroid viability
parameter measured: viability, T/C
output unit: %
assay value: 65.4
--
compound: C=CC(=O)Nc1cc(Nc2nccc(-c3cn(C)c4ccccc34)n2)c(OC)cc1N(C)CCN(C)C + C=CC(=O)N1CCN(c2nc(OCC3CCCN3C)nc3c(F)c(-c4nc(N)cc(C)c4C(F)(F)F)c(Cl)cc23)C(C)C1
system name: 349418-098-R-PDC complex spheroid viability
parameter measured: viability, T/C
output unit: %
assay value: 88.4
--
compound: C=CC(=O)Nc1cc(Nc2nccc(-c3cn(C)c4ccccc34)n2)c(OC)cc1N(C)CCN(C)C + C#Cc1c(F)ccc2cc(O)cc(-c3ncc4c(N5CC6CCC(C5)N6)nc(OCC56CCCN5CC(F)C6)nc4c3F)c12
system name: 349418-098-R-PDC complex spheroid viability
parameter measured: viability, T/C
output unit: %
assay value: 73.1
--
compound: O=C(c1ccc(F)c(F)c1Nc1ccc(I)cc1F)N1CC(O)([C@@H]2CCCCN2)C1 + C=CC(=O)N1CCN(c2nc(OCC3CCCN3C)nc3c(F)c(-c4nc(N)cc(C)c4C(F)(F)F)c(Cl)cc23)C(C)C1
system name: 349418-098-R-PDC complex spheroid viability
parameter measured: viability, T/C
output unit: %
assay value: 16.4
--
compound: CC(=O)OC12COC1CC(O)C1(C)C(=O)C(O)C3=C(C)C(OC(=O)C(O)C(NC(=O)OC(C)(C)C)c4ccccc4)CC(O)(C(OC(=O)c4ccccc4)C21)C3(C)C (centres undefined) + C=CC(=O)N1CCN(c2nc(OCC3CCCN3C)nc3c(F)c(-c4nc(N)cc(C)c4C(F)(F)F)c(Cl)cc23)C(C)C1
system name: 349418-098-R-PDC complex spheroid viability
parameter measured: viability, T/C
output unit: %
assay value: 12
--
compound: NC1c2ccccc2OC12CCN(c1cnc3c(N4CCCc5ncccc54)n[nH]c3n1)CC2 (centres undefined) + C=CC(=O)N1CCN(c2nc(OCC3CCCN3C)nc3c(F)c(-c4nc(N)cc(C)c4C(F)(F)F)c(Cl)cc23)C(C)C1
system name: 349418-098-R-PDC complex spheroid viability
parameter measured: viability, T/C
output unit: %
assay value: 89.8
--
compound: C=CC(=O)N1CCN(c2nc(OCC3CCCN3C)nc3c(F)c(-c4nc(N)cc(C)c4C(F)(F)F)c(Cl)cc23)C(C)C1 (centres undefined) + C#Cc1c(F)ccc2cc(O)cc(-c3ncc4c(N5CC6CCC(C5)N6)nc(OCC56CCCN5CC(F)C6)nc4c3F)c12
system name: 349418-098-R-PDC complex spheroid viability
parameter measured: viability, T/C
output unit: %
assay value: 91.2
--
compound: CCC(CC)c1cc(NC2CCC(N)C2)n2nccc2n1 (centres undefined) + C=CC(=O)N1CCN(c2nc(OCC3CCCN3C)nc3c(F)c(-c4nc(N)cc(C)c4C(F)(F)F)c(Cl)cc23)C(C)C1
system name: 349418-098-R-PDC complex spheroid viability
parameter measured: viability, T/C
output unit: %
assay value: 71.9
--
compound: CCC(CC)c1cc(NC2CCC(N)C2)n2nccc2n1 (centres undefined) + C#Cc1c(F)ccc2cc(O)cc(-c3ncc4c(N5CC6CCC(C5)N6)nc(OCC56CCCN5CC(F)C6)nc4c3F)c12
system name: 349418-098-R-PDC complex spheroid viability
parameter measured: viability, T/C
output unit: %
assay value: 85.6
--
compound: CC(=O)OC12COC1CC(O)C1(C)C(=O)C(O)C3=C(C)C(OC(=O)C(O)C(NC(=O)OC(C)(C)C)c4ccccc4)CC(O)(C(OC(=O)c4ccccc4)C21)C3(C)C (centres undefined) + C#Cc1c(F)ccc2cc(O)cc(-c3ncc4c(N5CC6CCC(C5)N6)nc(OCC56CCCN5CC(F)C6)nc4c3F)c12
system name: 349418-098-R-PDC complex spheroid viability
parameter measured: viability, T/C
output unit: %
assay value: 16.6
--
compound: CC(C)n1nc(-c2ccc3oc(N)nc3c2)c2c(N)ncnc21 + C#Cc1c(F)ccc2cc(O)cc(-c3ncc4c(N5CC6CCC(C5)N6)nc(OCC56CCCN5CC(F)C6)nc4c3F)c12
system name: 349418-098-R-PDC complex spheroid viability
parameter measured: viability, T/C
output unit: %
assay value: 9.16
--
compound: CC1(O)CCCC1n1c(=O)c(C(F)F)cc2cnc(NC3CCN(S(C)(=O)=O)CC3)nc21 (centres undefined) + C=CC(=O)N1CCN(c2nc(OCC3CCCN3C)nc3c(F)c(-c4nc(N)cc(C)c4C(F)(F)F)c(Cl)cc23)C(C)C1
system name: 349418-098-R-PDC complex spheroid viability
parameter measured: viability, T/C
output unit: %
assay value: 36
--
compound: CCN1CCN(Cc2ccc(Nc3ncc(F)c(-c4cc(F)c5nc(C)n(C(C)C)c5c4)n3)nc2)CC1 + C=CC(=O)N1CCN(c2nc(OCC3CCCN3C)nc3c(F)c(-c4nc(N)cc(C)c4C(F)(F)F)c(Cl)cc23)C(C)C1
system name: 349418-098-R-PDC complex spheroid viability
parameter measured: viability, T/C
output unit: %
assay value: 29
--
compound: CCN1CCN(Cc2ccc(Nc3ncc(F)c(-c4cc(F)c5nc(C)n(C(C)C)c5c4)n3)nc2)CC1 + C#Cc1c(F)ccc2cc(O)cc(-c3ncc4c(N5CC6CCC(C5)N6)nc(OCC56CCCN5CC(F)C6)nc4c3F)c12
system name: 349418-098-R-PDC complex spheroid viability
parameter measured: viability, T/C
output unit: %
assay value: 33.5
